Just for reference, patent US20240343803A1 is where these values come from.

- assayedTarget: T1, human PVRIG-mFc protein (Acro, PVG-H5253) (human, UniProt Q6DKI7 41-171, limits assumed)
- T1 construct: bought protein
- T1 sequence (looked up): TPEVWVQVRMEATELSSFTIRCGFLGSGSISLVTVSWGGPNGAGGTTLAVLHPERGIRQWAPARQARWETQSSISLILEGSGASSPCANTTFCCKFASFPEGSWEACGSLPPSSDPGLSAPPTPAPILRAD
- testMethodNotes: FACS competition, PVRIG-mFc binding to CHO-K1-CD112 cells, competitor CD112 on cells
- Method: A working solution of human PVRIG-mFc protein (Acro, PVG-H5253) prepared with staining buffer, 1 μg/mL (four-fold concentration), was added into a 96-well plate (50 μL PVRIG-mFc working solution per well). […] The diluted antibodies were added to the well containing 50 μL of PVRIG-mFc. […] After staining, the cells were washed twice with staining buffer, finally resuspended with 200 μL staining buffer and analyzed by flow cytometry (BD, Canto II). […]
Tick 1.0 if % AUC to COM701-hIgG4 is 80% or greater. Tick 0.0 if % AUC to COM701-hIgG4 is less than 80%.

{"binder": "PVRIG-A118 (Fc fusion, heavy chain antibody VHH-hinge-CH2-CH3, human IgG1 constant part; not shown: human IgG1 hinge-CH2-CH3) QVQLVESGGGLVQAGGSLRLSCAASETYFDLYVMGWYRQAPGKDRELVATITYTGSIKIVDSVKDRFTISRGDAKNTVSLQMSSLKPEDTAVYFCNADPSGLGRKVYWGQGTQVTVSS", "discreteLabel": 1.0}

Turning now to a further binder:
Threshold query (% AUC to COM701-hIgG4 >= 80%) on PVRIG-A43 (Fc fusion, heavy chain antibody VHH-hinge-CH2-CH3, human IgG1 constant part; not shown: human IgG1 hinge-CH2-CH3) QVQLVESGGGLVQSGGSLRLSCAASGRTRSMYVMGWFRQAPGKEREFVGRIKWSGDTTYTSYADFVKGRFTLYGNQARNTVYLQMNSLKVEDTAVYYCAGRVVPLPSRQRDRYDYWGQGTQVTVSS
1.0
